Target: F876L mutant Androgen Receptor (AR-F876L) (Homo sapiens, UniProt P10275, F877L)
Construct: expressed in transfected cells; host or cells: LNCaP (LNCaP F876L)
Sequence (P10275 1-920 F877L): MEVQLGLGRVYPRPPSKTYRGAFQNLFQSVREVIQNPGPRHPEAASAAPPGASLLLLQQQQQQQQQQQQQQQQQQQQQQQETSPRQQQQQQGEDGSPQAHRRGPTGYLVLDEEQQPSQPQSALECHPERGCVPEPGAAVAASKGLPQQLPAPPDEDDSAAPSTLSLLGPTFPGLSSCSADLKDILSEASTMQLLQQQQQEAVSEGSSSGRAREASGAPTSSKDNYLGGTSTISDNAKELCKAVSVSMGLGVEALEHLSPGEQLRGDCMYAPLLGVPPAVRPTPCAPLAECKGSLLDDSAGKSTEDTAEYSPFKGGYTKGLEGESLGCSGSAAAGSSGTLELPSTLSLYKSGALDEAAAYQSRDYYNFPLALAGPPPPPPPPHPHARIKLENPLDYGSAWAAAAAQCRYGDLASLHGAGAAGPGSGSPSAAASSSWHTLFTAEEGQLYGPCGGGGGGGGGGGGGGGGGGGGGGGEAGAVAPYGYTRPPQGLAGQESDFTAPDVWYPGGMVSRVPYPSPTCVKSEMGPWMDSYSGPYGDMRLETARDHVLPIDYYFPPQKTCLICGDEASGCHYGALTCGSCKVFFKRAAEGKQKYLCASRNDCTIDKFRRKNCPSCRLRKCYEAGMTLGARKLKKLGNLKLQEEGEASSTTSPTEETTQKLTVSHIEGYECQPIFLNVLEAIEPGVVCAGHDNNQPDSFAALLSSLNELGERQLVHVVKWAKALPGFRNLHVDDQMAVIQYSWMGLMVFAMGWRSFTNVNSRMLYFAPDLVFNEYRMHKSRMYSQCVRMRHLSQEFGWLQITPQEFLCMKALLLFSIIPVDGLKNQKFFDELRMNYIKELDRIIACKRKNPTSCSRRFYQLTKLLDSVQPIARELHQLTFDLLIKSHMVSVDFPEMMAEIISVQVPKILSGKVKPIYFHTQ
Assay: LNCaP-AR-F876L ANT reporter assay (ARE firefly luciferase, antagonist mode)
Type: cell-based
Settings: maximum % inhibition of R1881 control response over tested concentration range; read-out: LNCaP-AR-F876L ANT MAX % Inh
Below, each of the compounds is paired with its reported Emax value.
# number only, unit % dropped from output

Summary for this compound, Cc1cc(N2C(=O)C3(CCC3)N(c3ccc(-c4ccco4)cc3)C2=S)cnc1C#N : Emax is 93.3

The compound listed as N#Cc1ncc(N2C(=O)C3(CCC3)N(c3ccc(C(=O)NCc4ccco4)c(F)c3)C2=S)cc1C(F)(F)F has a reported Emax of 91.6

# compound CCN1CCC(Oc2ccc(N3C(=S)N(c4cnc(C#N)c(C)c4)C(=O)C34CCC4)cc2)CC1 ; its Emax = 100

Measured Emax, N#Cc1ncc(N2C(=O)C3(CCC3)N(c3cccc(F)c3)C2=S)cc1C(F)(F)F : 98.6

For record N#Cc1ncc(N2C(=O)C3(CCC3)N(c3ccc(C(=O)NCc4ccc(Cl)cc4)c(F)c3)C2=S)cc1C(F)(F)F the listed Emax is 96.7

Now look at this one.
So for N#Cc1ncc(N2C(=O)C3(CCC3)N(c3ccc(C(=O)NCCCN4CCCC4=O)c(F)c3)C2=S)cc1C(F)(F)F , the logged Emax turned out to be 96.5

* * *

target: F876L-VP16 (Homo sapiens, UniProt P10275, F877L); construct: VP16 (fusion partner); test: AR-VP16 DNA binding assay, HepG2; settings: HepG2, antagonist mode, 1 nM R1881, 48 hours
measurement kind: IC50 (nM)
Reply with just the number (in nM).

IC50 recorded for this molecule, N#Cc1ncc(N2C(=O)C3(CCC3)N(c3ccc(OC4CCNCC4)cc3)C2=S)cc1C(F)(F)F , is 2740

Entry under test: Cc1cc(N2C(=O)C3(CCC3)N(c3ccc(OC4CCN(CCO)CC4)cc3)C2=S)cnc1C#N . Its IC50 was 746

Then this molecule:
The reported IC50 of the molecule N#Cc1ncc(N2C(=O)C3(CCC3)N(c3ccc(C(=O)NCCCO)c(F)c3)C2=S)cc1C(F)(F)F was 994

* * *

As shown below, each of these compounds has a reported EC50 value.
target: F876L mutant Androgen Receptor (AR-F876L) (Homo sapiens, UniProt P10275, F877L); construct: expressed in transfected cells; host or cells: LNCaP (LNCaP F876L); test: LNCaP-AR-F876L AG reporter assay (ARE firefly luciferase, agonist mode); assay type: cell-based; conditions: agonist mode; −Log10(EC50 [Molar]); read-out: LNCaP-AR-F876L AG pEC50 (converted)

According to the records, this compound N#Cc1ncc(N2C(=O)C3(CCC3)N(c3ccc(C(=O)NCCCO)c(F)c3)C2=S)cc1C(F)(F)F displays EC50 of > 15.1 µM

Record Cc1ccc(-c2ccc(N3C(=S)N(c4cnc(C#N)c(C)c4)C(=O)C34CCC4)cc2)o1 , field EC50: > 15.1 µM

compound CCOC(=O)CCCNC(=O)c1ccc(N2C(=S)N(c3cnc(C#N)c(C(F)(F)F)c3)C(=O)C23CCC3)cc1F , EC50 observed: > 15.1 µM

The compound Cc1cc(N2C(=O)C3(CCC3)N(c3ccc(C(=O)Nc4ccc(Cl)cc4)c(F)c3)C2=S)cnc1C#N showed EC50 equal to > 15.1 µM

For record Cc1cc(N2C(=O)C3(CCC3)N(c3ccc(OC4CCNCC4)cc3)C2=S)cnc1C#N the listed EC50 is > 15.1 µM

EC50 in this record for N#Cc1ncc(N2C(=O)C3(CCC3)N(c3ccc(C(=O)NCc4ccc(Cl)cc4)c(F)c3)C2=S)cc1C(F)(F)F : > 15.1 µM

Input Cc1cc(N2C(=O)C3(CCC3)N(c3ccc(OC4CCSCC4)cc3)C2=S)cnc1C#N . Output EC50: > 15.1 µM

# EC50 (compound: Cc1cc(N2C(=O)C3(CCC3)N(c3ccc(C(=O)NCC4CCOCC4)c(F)c3)C2=S)cnc1C#N ) is > 15.1 µM

* * *

Target: F876L mutant Androgen Receptor (AR-F876L) (Homo sapiens, UniProt P10275, F877L)
Construct: expressed in transfected cells; host or cells: LNCaP (LNCaP F876L)
Sequence (P10275 1-920 F877L): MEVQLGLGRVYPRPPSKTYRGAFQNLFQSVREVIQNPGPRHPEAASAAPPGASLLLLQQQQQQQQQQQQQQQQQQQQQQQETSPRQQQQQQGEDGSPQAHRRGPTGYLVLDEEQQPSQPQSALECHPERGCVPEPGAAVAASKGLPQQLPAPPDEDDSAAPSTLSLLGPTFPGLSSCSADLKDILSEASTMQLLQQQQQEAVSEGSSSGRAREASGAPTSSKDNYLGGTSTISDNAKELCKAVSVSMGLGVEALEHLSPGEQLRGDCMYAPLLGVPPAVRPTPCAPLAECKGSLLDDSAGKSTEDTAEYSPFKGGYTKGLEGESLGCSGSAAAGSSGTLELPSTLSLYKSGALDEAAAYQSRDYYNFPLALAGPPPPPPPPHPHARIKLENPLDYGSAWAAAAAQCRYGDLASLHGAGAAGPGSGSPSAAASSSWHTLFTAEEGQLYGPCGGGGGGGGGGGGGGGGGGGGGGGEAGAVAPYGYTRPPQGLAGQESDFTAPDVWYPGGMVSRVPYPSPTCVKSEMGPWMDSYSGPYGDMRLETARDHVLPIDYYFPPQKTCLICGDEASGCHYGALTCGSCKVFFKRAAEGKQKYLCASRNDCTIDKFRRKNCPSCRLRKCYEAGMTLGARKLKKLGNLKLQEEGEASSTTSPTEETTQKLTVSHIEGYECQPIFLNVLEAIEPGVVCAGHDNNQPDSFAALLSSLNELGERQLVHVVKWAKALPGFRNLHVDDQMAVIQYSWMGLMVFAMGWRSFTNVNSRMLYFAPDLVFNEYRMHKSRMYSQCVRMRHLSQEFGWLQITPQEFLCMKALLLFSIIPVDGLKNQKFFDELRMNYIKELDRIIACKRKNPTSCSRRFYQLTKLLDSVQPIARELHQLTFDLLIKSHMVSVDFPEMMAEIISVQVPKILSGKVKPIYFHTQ
Assay: LNCaP-AR-F876L AG reporter assay (ARE firefly luciferase, agonist mode)
Type: cell-based
Settings: read-out: LNCaP-AR-F876L AG MAX % Stim
Reported Emax is given for each of the following compounds.
Give the value in % but do not write % after it.

Entry N#Cc1ncc(N2C(=O)C3(CCC3)N(c3ccc(OC(F)(F)F)cc3)C2=S)cc1C(F)(F)F ; Emax = 0.3

Value of measured Emax for the entry N#Cc1ncc(N2C(=O)C3(CCC3)N(c3ccc(Oc4cncnc4)cc3)C2=S)cc1C(F)(F)F : 0.7

Measured Emax of N#Cc1ncc(N2C(=O)C3(CCC3)N(c3ccc(C(=O)NCc4ccccc4Cl)c(F)c3)C2=S)cc1C(F)(F)F : 0.3

Emax reported for this compound N#Cc1ncc(N2C(=O)C3(CCC3)N(c3ccc4[nH]ncc4c3)C2=S)cc1C(F)(F)F : 1.3

These measurements were taken from patent US20180008587A1.
